The measured values listed here are drawn from the supplement of paper PMC9732359.

test: protein stability index of a GFP-peptide fusion (yeast GPS) (PSI 1-4); higher = more stable; sorted into four equal gates, so the index is relative within each strain; settings: doa10∆
protein stability index of 3 or higher: Met. Under 3: Not met.

INSERT INTO assay_data (input_sequence, category_label) VALUES
  ('SIATKRFDAQTGSDREV [RPT3]', 'Met'),
  ('NSNQQQNPKLFQTIFSK [SIN4]', 'Not met'),
  ('YNEFLYSKAGREELERV [QCR8]', 'Not met'),
  ('LDTQLITLLPSSLKESS [SNF12]', 'Not met'),
  ('AERDSQGGFYKQQDAEE [UBP6]', 'Met'),
  ('VVEACGNIVAELAQDPQ [YCS4]', 'Not met'),
  ('TTDDKSMDTKKKHKQKK [BRN1]', 'Met'),
  ('MKVEVDSFSGAKIYPGR [RPL24B]', 'Met'),
  ('WALKSSLNSMTNAKLPN [RGR1]', 'Not met'),
  ('RFNVVKVSAAAGKANKQ [RPS11A]', 'Not met'),
  ('TNWDDHAIIIFGYPETI [YMR153W/NUP53]', 'Not met'),
  ('TAVKQGVTSLGIKATNG [PRE8]', 'Not met'),
  ('KYSKLVDNVTLESYKTQ [SRP72]', 'Met'),
  ('AEEDSLLSGEDLTLDDI [YJL039C/NUP192]', 'Met'),
  ('VPVALKGQGPFTLTYDI [YMR129W/POM152]', 'Not met'),
  ('SYEKNEDHVEDHRKRKK [LIN1]', 'Met'),
  ('LYGKRFFPYYVHTIIAG [PRE7]', 'Not met'),
  ('NGDKKVDIYSLPLISTD [YMR129W/POM152]', 'Not met'),
  ('LFGAKPQNTTATTGGLF [YGR119C/NUP57]', 'Not met'),
  ('VKSLLSEEKIRDYSKEI [SIR4]', 'Met'),
  ('GSPKSATSKTSEMLAKY [CDC53]', 'Not met'),
  ('KIVEIDRHIGCAMSGLT [PUP2]', 'Not met'),
  ('SVIVKFHSEPDRDENWI [LIN1]', 'Not met'),
  ('IIRHEKELEPWDLQLQE [SMC4]', 'Met'),
  ('IVMQLRKCCNHPYLFEG [ISW2]', 'Not met'),
  ('EVDVCDKCGLMGYSGWC [RET1]', 'Not met'),
  ('HIHKHVKDEAFDDLLKP [RET1]', 'Met'),
  ('ISSLGYRSHIFATNEER [SWI3]', 'Not met'),
  ('SKQVQVSQQPLSRGYTC [ECM29]', 'Not met'),
  ('FMLILALFVFYSPNTLG [COB]', 'Not met'),
  ('YIYLSHETLARSSEEIN [RPN3]', 'Met'),
  ('RGKNEIIQNAQRDAVTL [RPO21]', 'Met'),
  ('KAKVEEMNNIIAASRRH [RPL36A]', 'Not met'),
  ('TRKILEILNECHDELKA [MED4]', 'Not met'),
  ('SDESIERLMTWKFKSLI [RRI2]', 'Not met'),
  ('GWWGHMGGPKQKGITSY [QCR8]', 'Met'),
  ('AGQNATVAVMSYSGYDI [RET1]', 'Not met'),
  ('ALNDVYLDADVAKLANW [YML031W/NDC1]', 'Not met'),
  ('AKLSERSNGSVASLSKR [YJL039C/NUP192]', 'Not met'),
  ('RSISKELIVSEEIPINS [SIR3]', 'Not met'),
  ('RKVREQEELKKRQELEE [MED2]', 'Not met'),
  ('VLTYPEKVTRYNRHKLQ [RPO31]', 'Not met'),
  ('GSAATSGFEFSKEDTLR [RPN1]', 'Not met'),
  ('HFRAPSRILYKAIRGMV [RPL16B]', 'Not met'),
  ('QQNYSKVLLPSINISCV [SWI1]', 'Not met'),
  ('TIDEQSQISPEKQTPNK [RPN1]', 'Met'),
  ('QQRGITYLNEVLEKDAA [YGR119C/NUP57]', 'Met');
